List of self-cleavage values.
B1: HDV Ribozyme (parent)
chain: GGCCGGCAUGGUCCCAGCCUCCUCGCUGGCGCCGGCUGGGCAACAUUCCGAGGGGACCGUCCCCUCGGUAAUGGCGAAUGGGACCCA

Variants of: B1
test_summary: self-cleavage, relative activity (ratio to wild type); higher = more cleavage; co-transcriptional
Respond using a number only.

Look over these answered cases.
INSERT INTO results (changes, measurement) VALUES
  ('G10A G28U', 0.0848),
  ('C32G C44U', 0.0665),
  ('G54A G73U', 0.211),
  ('U69A C85A', 0.767),
  ('G2A C32A', 0.0507);

Tell me the measured self-cleavage of U9G G80A , please.
0.516

If you can, please state the reported self-cleavage value of C36G U47A .
0.177

Value lookup for self-cleavage; key = C3G A71C
0.261
